# study_target: Factor X (FX), P00742
# Sequence (P00742 whole entry, looked up): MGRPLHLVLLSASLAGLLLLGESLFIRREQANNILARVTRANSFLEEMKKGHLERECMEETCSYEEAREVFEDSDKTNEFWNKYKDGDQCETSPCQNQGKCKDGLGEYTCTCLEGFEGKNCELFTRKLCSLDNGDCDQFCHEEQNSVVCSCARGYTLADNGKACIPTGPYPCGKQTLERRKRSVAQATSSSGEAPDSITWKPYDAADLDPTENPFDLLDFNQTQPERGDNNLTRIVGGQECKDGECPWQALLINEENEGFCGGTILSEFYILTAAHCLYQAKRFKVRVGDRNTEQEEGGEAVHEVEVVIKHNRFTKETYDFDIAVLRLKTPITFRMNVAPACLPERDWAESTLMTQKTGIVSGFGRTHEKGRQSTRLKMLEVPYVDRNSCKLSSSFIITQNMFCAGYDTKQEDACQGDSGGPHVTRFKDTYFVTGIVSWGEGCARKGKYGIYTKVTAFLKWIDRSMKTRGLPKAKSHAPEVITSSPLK
measure: KM of FX activation by FIXa in the Xase complex (FVIIIa, PC/PS vesicles, Ca2+) (µM)
# number only, unit µM dropped from output

Q) Can you look up the measured KM of FX activation by FIXa in the Xase complex (FVIIIa, PC/PS vesicles, Ca2+) of FIXa variant D203N/F205T/R318Y/E410N (mature FIX numbering) (protein) chain 1: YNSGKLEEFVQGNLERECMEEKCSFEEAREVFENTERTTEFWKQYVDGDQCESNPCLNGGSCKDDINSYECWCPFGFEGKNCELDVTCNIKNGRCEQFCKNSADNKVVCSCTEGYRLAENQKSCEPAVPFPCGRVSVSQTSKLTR chain 2: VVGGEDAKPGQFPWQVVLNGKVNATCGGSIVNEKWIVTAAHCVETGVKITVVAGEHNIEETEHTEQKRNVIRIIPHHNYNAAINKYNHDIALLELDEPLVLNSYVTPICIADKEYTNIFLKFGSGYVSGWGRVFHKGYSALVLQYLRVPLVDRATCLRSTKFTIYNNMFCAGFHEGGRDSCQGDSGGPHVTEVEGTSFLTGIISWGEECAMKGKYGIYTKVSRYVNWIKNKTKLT for me?
A) 0.0457
